system.tested: R271A nvTRPM2 (Nematostella vectensis, UniProt A7T1N0, R271A)
Sequence (A7T1N0 whole entry R271A): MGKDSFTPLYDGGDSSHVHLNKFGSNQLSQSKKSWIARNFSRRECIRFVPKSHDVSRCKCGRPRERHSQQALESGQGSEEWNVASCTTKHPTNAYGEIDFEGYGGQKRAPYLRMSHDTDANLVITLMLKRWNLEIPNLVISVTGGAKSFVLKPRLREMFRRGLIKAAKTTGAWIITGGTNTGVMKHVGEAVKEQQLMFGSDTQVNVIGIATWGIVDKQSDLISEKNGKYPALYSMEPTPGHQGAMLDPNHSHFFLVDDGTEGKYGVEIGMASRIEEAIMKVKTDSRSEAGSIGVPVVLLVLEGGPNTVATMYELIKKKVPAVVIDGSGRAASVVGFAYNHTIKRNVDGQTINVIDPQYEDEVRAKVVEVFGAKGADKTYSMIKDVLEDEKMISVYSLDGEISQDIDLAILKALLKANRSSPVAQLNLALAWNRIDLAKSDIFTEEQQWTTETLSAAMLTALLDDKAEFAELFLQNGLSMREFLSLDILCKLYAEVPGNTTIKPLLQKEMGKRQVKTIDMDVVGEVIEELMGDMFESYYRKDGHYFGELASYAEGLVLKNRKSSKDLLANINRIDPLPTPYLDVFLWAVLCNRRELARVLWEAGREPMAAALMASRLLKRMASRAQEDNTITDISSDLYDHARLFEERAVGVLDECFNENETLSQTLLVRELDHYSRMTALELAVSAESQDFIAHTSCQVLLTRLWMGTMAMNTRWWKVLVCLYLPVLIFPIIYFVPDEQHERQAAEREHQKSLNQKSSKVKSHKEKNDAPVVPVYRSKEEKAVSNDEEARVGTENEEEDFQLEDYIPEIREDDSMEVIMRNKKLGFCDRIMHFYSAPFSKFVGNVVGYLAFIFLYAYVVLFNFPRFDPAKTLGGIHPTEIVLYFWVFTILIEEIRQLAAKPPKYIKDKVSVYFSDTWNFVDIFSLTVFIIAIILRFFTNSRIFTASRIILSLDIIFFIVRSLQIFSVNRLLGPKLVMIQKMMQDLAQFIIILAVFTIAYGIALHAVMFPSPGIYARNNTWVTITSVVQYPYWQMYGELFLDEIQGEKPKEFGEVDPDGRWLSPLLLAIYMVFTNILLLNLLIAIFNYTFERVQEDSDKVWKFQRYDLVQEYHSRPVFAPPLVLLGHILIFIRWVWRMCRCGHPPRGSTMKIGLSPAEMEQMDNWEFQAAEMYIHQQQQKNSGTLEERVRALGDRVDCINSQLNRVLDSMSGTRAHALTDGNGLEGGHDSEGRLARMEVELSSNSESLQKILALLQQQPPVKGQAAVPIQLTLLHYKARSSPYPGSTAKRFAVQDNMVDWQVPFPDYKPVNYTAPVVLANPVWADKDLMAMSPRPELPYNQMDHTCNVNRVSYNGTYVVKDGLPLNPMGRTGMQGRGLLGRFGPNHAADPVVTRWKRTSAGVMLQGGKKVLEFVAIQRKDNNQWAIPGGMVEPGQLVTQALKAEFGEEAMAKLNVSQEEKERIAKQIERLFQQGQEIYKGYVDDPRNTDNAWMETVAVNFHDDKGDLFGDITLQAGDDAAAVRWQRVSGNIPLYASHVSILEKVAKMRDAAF
experiment.description: Inside-out patch-clamp, R271A nvTRPM2
Assay type: cell-based
condition.label: read-out: EC50 for channel activation, 125 µM Ca2+ + 2.5 µM PIP2
reported.metric: EC50 (nM)
Answers are plain numbers, in nM.

## Input Give the measured EC50 of Nc1ncnc2c1ncn2[C@@H]1O[C@H](COP(=O)(O)OP(=O)(O)OC[C@H]2O[C@@H](O)C(O)[C@H]2O)C(O)[C@@H]1OP(=O)(O)O (stereo partly shown) [ADPRP, ADPR-2′-phosphate] .
## Output 89

---

system.tested: T307A nvTRPM2 (Nematostella vectensis, UniProt A7T1N0, T307A)
Sequence (A7T1N0 whole entry T307A): as the sequence (A7T1N0 whole entry R271A) above, with A271R, T307A counted along it
experiment.description: Inside-out patch-clamp, T307A nvTRPM2
Format: cell-based
condition.label: read-out: EC50 for channel activation, 125 µM Ca2+ + 2.5 µM PIP2
reported.metric: EC50 (µM)
Answers are plain numbers, in µM.

## Input Give the measured EC50 of Nc1ncnc2c1ncn2[C@@H]1O[C@H](COP(=O)(O)OP(=O)(O)OC[C@H]2O[C@@H](O)C(O)[C@H]2O)C(O)[C@@H]1OP(=O)(O)O (stereo partly shown) [ADPRP, ADPR-2′-phosphate] .
## Output 12
